The reported numbers originate from patent EP0252525B1.

Biological target: human salivary α-amylase (HSA) (Homo sapiens)
Sequence (P0DUB6 16-511): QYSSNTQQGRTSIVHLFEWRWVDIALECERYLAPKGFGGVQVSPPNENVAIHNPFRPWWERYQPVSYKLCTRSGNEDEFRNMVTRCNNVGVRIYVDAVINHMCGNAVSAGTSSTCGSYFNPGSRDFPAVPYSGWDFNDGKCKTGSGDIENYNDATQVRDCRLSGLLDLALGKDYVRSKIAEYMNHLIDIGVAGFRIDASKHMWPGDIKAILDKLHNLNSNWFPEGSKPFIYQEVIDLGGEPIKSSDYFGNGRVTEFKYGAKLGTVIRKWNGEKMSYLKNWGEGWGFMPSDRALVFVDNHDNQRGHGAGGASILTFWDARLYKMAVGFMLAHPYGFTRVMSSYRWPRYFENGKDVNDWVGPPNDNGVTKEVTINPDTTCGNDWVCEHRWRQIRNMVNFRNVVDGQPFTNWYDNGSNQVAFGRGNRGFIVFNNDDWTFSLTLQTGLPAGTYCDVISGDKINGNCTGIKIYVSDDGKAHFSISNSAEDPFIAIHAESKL
Assay: Hydrolysis rate of substrates by α-amylase (relative to G5P)
Assay type: biochemical
Settings: substrate 1.0 mM, pH 7, value of G5P taken as 1
MEASURED ENDPOINT: hydrolysis rate (relative value)
Just the number.

* O=[N+]([O-])c1ccc(O[C@H]2O[C@H](CO)[C@@H](O[C@H]3O[C@H](CO)[C@@H](O[C@H]4O[C@H](CO)[C@@H](O[C@H]5O[C@H](CO)[C@@H](O[C@H]6O[C@H](CO)[C@@H](O[C@H]7O[C@@H]8COC(c9ccccc9)O[C@H]8[C@H](O)[C@H]7O)[C@H](O)[C@H]6O)[C@H](O)[C@H]5O)[C@H](O)[C@H]4O)[C@H](O)[C@H]3O)[C@H](O)[C@H]2O)cc1 (some centres unmarked) [BDG6P] | 0.5

// next entry
Query string: Give the value of hydrolysis rate (relative value) reported for the following: O=[N+]([O-])c1ccc(O[C@H]2O[C@H](CO)[C@@H](O[C@H]3O[C@H](CO)[C@@H](O[C@H]4O[C@H](CO)[C@@H](O[C@H]5O[C@H](CO)[C@@H](O[C@H]6O[C@H](CO)[C@@H](O[C@H]7O[C@H](CO)[C@@H](O)[C@H](O)[C@H]7O)[C@H](O)[C@H]6O)[C@H](O)[C@H]5O)[C@H](O)[C@H]4O)[C@H](O)[C@H]3O)[C@H](O)[C@H]2O)cc1 [Substrate G6P]
Result string: 1.7
